Where these numbers come from: patent US10227323B2

As shown below, each of these compounds has a reported IC50 value.
# ASSAYED TARGET: GCS (Canis lupus familiaris)
# Sequence (A0A8I3MXG6 1-394): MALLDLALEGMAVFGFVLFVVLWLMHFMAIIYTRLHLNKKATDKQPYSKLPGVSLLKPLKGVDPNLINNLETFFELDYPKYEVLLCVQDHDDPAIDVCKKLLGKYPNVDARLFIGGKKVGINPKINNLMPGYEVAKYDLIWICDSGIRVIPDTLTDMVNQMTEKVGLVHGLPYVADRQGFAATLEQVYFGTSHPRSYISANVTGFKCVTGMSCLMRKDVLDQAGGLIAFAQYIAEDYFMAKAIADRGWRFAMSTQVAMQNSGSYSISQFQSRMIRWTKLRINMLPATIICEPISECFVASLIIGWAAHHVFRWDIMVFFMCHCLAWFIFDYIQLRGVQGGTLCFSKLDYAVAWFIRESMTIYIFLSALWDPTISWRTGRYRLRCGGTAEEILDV
# RUN DESCRIPTION: Assay 1: GCS Enzymatic Assay (MDCK cell lysate, C6-NBD-Ceramide, LC/MS)
# Type: biochemical, canine
# RECORDED CONDITIONS: Table 3; MDCK cell lysate; read-out: IC50 (nM) generated from Assay 1

In [3]: df
Out[3]:
                                   compound  value_kind     test_value
0  O=C(N[C@H](CN1CCCC1)[C@H](O)c1ccc(Cl)cc1)C(=O)c1ccc(-c2ccc(F)cc2)cc1 [Example 389]        IC50  50 to 5000 nM

Req: Fill in reported IC50 for this entry: O=C(N[C@H](CN1CCCC1)[C@H](O)c1ccc(OC2CC2)cc1)C(F)(F)c1ccc(-c2ccc(Cl)s2)cc1 [Example 393]
Resp: < 50 nM

Req: Fill in reported IC50 for this entry: C#Cc1ccc(C(=O)C(=O)N[C@H](CN2CCCC2)[C@H](O)c2ccc(OC3CC3)cc2)cc1 [Example 401]
Resp: 50 to 5000 nM

Req: Fill in reported IC50 for this entry: O=C(N[C@H](CN1CCCC1)[C@H](O)c1ccc(OC2CC2)c(Cl)c1)C(=O)c1ccc(-n2nccn2)cc1 [Example 403]
Resp: < 50 nM

Req: Fill in reported IC50 for this entry: CN(C(=O)C(=O)c1ccc(-c2ccc(F)cc2)cc1)[C@H](CN1CCCC1)[C@H](O)c1ccc(OC2CC2)c(F)c1 [Example 404]
Resp: < 50 nM

Req: Fill in reported IC50 for this entry: O=C(N[C@H](CN1CCCC1)[C@H](O)c1ccc(OC2CC2)cc1)C(=O)c1cc2cc(Cl)ccc2s1 [Example 391]
Resp: < 50 nM

Req: Fill in reported IC50 for this entry: O=C(N[C@H](CN1CCCC1)[C@H](O)c1ccc(OC2CC2)cc1)C(F)(F)CCc1ccc2cc(Cl)ccc2c1 [Example 402]
Resp: 50 to 5000 nM
